Tested on: TNFα production by human peripheral blood mononuclear cells
Assay: PBMC test: LPS-stimulated TNFα production
Type: cell-based
Conditions: approximate value
List of IC50 values.
measured-parameter: IC50

INSERT INTO measurements (compound, target_entity, measured_parameter, meas_value) VALUES
  ('COc1ccc(C(=O)Nc2cc(C(=O)NCCC3CCCCC3)ccc2C)cc1OC [Example 11]', 'TNFα production by human peripheral blood mononuclear cells', 'IC50', '~8 µM'),
  ('CCCc1ccc(C(=O)Nc2cc(C(=O)Nc3cccc(N(C)C)c3)ccc2C)cc1 [Example 3, Compound No. 1]', 'TNFα production by human peripheral blood mononuclear cells', 'IC50', '~6 µM'),
  ('Cc1ccc(C(=O)Nc2cccc(N(C)C)c2)cc1NC(=O)c1ccc2ncccc2c1 [Example 12]', 'TNFα production by human peripheral blood mononuclear cells', 'IC50', '~22 µM');

====

# IC50 measurements, system: p38α (Homo sapiens, UniProt Q16539)
# Sequence (Q16539 whole entry): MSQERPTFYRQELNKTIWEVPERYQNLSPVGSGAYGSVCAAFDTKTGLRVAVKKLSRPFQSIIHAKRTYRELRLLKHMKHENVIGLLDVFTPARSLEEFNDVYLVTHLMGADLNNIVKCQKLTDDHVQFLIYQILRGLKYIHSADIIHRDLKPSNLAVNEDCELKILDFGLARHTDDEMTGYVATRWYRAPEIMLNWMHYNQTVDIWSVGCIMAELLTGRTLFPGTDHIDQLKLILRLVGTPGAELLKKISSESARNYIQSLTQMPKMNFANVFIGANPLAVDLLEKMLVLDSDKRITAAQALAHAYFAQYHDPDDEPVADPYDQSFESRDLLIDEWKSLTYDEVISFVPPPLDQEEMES
measured-parameter: IC50

INSERT INTO results (entry_smiles, target_entity, meas_value) VALUES
  ('CCCc1ccc(C(=O)Nc2cc(C(=O)Nc3cccc(N(C)C)c3)ccc2C)cc1', 'p38α (Homo sapiens, UniProt Q16539)', '~300 nM'),
  ('Cc1ccc(C(=O)Nc2cccc(N(C)C)c2)cc1NC(=O)c1ccc2ncccc2c1', 'p38α (Homo sapiens, UniProt Q16539)', '~700 nM'),
  ('COc1ccc(C(=O)Nc2cc(C(=O)NCCC3CCCCC3)ccc2C)cc1OC', 'p38α (Homo sapiens, UniProt Q16539)', '~1000 nM'),
  ('Cc1ccc(C(=O)Nc2cccc(N3CCOCC3)c2)cc1NC(=O)c1cccc(OC2CCNCC2)c1', 'p38α (Homo sapiens, UniProt Q16539)', '~50 nM'),
  ('CCN(CC)Cc1ccc(C(=O)Nc2cc(C(=O)Nc3cccc(N4CCOCC4)c3)ccc2C)cc1', 'p38α (Homo sapiens, UniProt Q16539)', '~300 nM');

Data origin: patent US6821965B1
